system: COLO 205 colon; test: NCI tumour cell line growth inhibition, 48 h
readout.kind: TGI

Req: Request: TGI, test system COLO 205 colon, entry C/C(=N\NC(N)=S)c1nc2ncccc2[nH]1
Resp: > 100 µM

Req: So what TGI did CCN(CC)CCC1CCCCN1CC(=O)N1c2cc(Cl)ccc2NC(=O)CC1C (stereo not drawn) get with COLO 205 colon?
Resp: > 100 µM

Req: I'm curious: which TGI was measured for Cc1c(C(N)=O)sc2nc(C)n(/N=c3\scc(-c4ccccc4)n3Cc3ccccc3)c(=O)c12 tested on COLO 205 colon?
Resp: 7.32 µM

====

Please respond with reported GI50 for every item in the list.
test system: MOLT-4 leukemia; assay: NCI tumour cell line growth inhibition, 48 h

Req: Using the record for CCc1c(C)c2cc(-n3c(-c4ccc(OC)cc4)csc3=N)c(O)c(C)c2oc1=O , report its GI50.
Resp: 1.54 µM

Req: # GI50 lookup, item COC(=O)c1cc2cc(/C=C3/SC(=S)N(N(C(C)=O)C(C)=O)C3=O)oc2n1Cc1ccccc1
Resp: 59.9 µM

Req: Could you tell me which GI50 is on file for CSc1nc2c(c(=O)n1C)C(c1ccccc1)C1=C(N2)/C(=C/c2ccccc2)CCC1 (stereo not given) ?
Resp: 4.9 µM

Req: What does the data say about its GI50? Entry: N#CC1=C(N)OC2=C(CCOc3c2ccc2ccccc32)C1c1ccc(Br)cc1 (stereo not given)
Resp: 11.3 µM

Req: Please report the recorded GI50 for CC(=O)[CH-]C(=O)c1ccccc1.CC(=O)[CH-]C(=O)c1ccccc1.CC(=O)[CH-]C(=O)c1ccccc1.[Ga+3] .
Resp: 9.64 µM

Req: Looking for the measured GI50 of O=C1/C(=C/c2ccc([N+](=O)[O-])o2)Oc2ccc(Cl)cc21 , can you help?
Resp: 2.05 µM

Req: Given COc1ccc2c(c1)/C(=N/OC(C)=O)c1c-2c(OC)nc2ccccc12 , state its recorded GI50.
Resp: > 100 µM

Req: Find the recorded GI50 belonging to COc1cc(C(=O)n2nc(N)c3c(C)cc(C)nc32)cc(OC)c1OC and report it.
Resp: 7.26 µM

Req: I'd like to know its GI50. The molecule in question is CN(CCCCCl)P(=O)(OCc1ccc([N+](=O)[O-])o1)OCC1OC(n2cc([N+](=O)[O-])c(=O)[nH]c2=O)CC1O (stereo not given)
Resp: 25.1 µM

Req: Which GI50 is listed for O=C(NCCNCCO)c1ccc(Nc2nc3ccccc3c3occc23)cc1 ?
Resp: 4.77 µM
